# System: U251 human glioma cells
# ASSAY_NAME: MTT cytotoxicity assay, U251 glioma cells
# TEST_CONTEXT: U251 cells, 48 hours
pIC50: −log10 of the molar value.
PROPERTY: pIC50

- C=C(C)C1CC=C(COC(=O)N2CC(c3ccc(OC)c(OC4CCCC4)c3)CC2=O)CC1 (stereo not shown): 4.30

====

# IC50 per entry
# Test system: MDA-MB-231
# ASSAY_NAME: cells
# TEST_CONTEXT: Homo sapiens, MDA-MB-231, 48 h, read-out: IC50 (concentration required to decrease colony formation by 50%)
PROPERTY: IC50 (µM)

• Cn1nnc2c(C(N)=O)ncn2c1=O [TMZ, temozolomide, reference compound] = 9.9
• C=C(C)[C@@H]1CC=C(COC(=O)NC(=O)c2ncn3c(=O)n(C)nnc23)CC1 = 2.3

====

# Test system: LN229 human glioma cells
# ASSAY_NAME: cells
# TEST_CONTEXT: LN229 cells, 48 hours
PROPERTY: IC50 (µM)

• C=C(C)C1CC=C(COC(=O)N2CC(c3ccc(OC)c(OC4CCCC4)c3)CC2=O)CC1 (stereo not shown) = 100

====

# System: MDA-MB-231-br
# ASSAY_NAME: Colony formation assay, MDA-MB-231-br
# Type: cell-based, human
# TEST_CONTEXT: Homo sapiens, 48 h, read-out: IC50 (concentration required to decrease colony formation by 50%)
Recorded IC50 values for a group of molecules are listed next.
PROPERTY: IC50 (nM)

• C=C(C)[C@@H]1CC=C(COC(=O)NC(=O)c2ncn3c(=O)n(C)nnc23)CC1 = 1200
• Cn1nnc2c(C(N)=O)ncn2c1=O [TMZ, temozolomide, reference compound] = 3800

====

# System: LN229 human glioma cells
# ASSAY_NAME: cells
# TEST_CONTEXT: Homo sapiens, LN-229, 48 h
# Description: In vitro efficacy of the present composition can be determined using methods well known in the art. […] MTT assay is based on the principle of uptake of MTT, a tetrazolium salt, by metabolically active cells where it is metabolized into a blue colored formazon product, which can be read spectrometrically. […]
PROPERTY: IC50

• COc1ccc(C2CNC(=O)C2)cc1OC1CCCC1 (stereo not shown) [rolipram, reference compound] = > 100 µM

====

# Tested on: MCF7
# ASSAY_NAME: Colony formation assay, MCF7
# TEST_CONTEXT: Homo sapiens, MCF7, 48 h, read-out: IC50 (concentration required to decrease colony formation by 50%)
pIC50: −log10 of the molar value.
PROPERTY: pIC50

* C=C(C)[C@@H]1CC=C(COC(=O)NC(=O)c2ncn3c(=O)n(C)nnc23)CC1 [TMZ-POH] | 4.48
* Cn1nnc2c(C(N)=O)ncn2c1=O [TMZ, temozolomide, reference compound] | 3.29
